Each recorded value in this set is attributed to paper PMC10374545.

- Target Of Assay: LYP (Homo sapiens)
- Sequence (Q9Y2R2 1-294): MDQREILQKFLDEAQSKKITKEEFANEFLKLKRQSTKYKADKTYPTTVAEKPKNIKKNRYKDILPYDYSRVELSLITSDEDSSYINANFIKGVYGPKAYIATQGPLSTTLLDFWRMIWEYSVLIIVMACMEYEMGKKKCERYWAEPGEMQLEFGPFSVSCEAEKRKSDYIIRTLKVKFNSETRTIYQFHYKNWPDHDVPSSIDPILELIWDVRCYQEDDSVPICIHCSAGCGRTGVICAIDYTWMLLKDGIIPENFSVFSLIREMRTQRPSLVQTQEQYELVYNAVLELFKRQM
pIC50: −log10 of the molar value.
Quantity: pIC50

// pIC50 (LYP (Homo sapiens)) for CC(C)(O)CCOc1ccc2cc(O)c(N3CC(=O)NS3(=O)=O)c(F)c2c1 [Compound 182] = < 4.70

----------
- Target Of Assay: LMPTP (Homo sapiens, UniProt P24666)
- Sequence (P24666 whole entry): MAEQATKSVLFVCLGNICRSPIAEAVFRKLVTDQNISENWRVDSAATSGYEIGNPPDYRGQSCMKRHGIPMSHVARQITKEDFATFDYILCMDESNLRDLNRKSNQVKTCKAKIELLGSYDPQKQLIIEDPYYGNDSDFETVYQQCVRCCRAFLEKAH
Quantity: IC50

Sure, the documented IC50 for CC(C)(O)CCOc1ccc2cc(O)c(N3CC(=O)NS3(=O)=O)c(F)c2c1 [Compound 182] is > 20 µM

----------
- Target Of Assay: UniProt:Q12923
- Sequence (Q12923 2124-2485): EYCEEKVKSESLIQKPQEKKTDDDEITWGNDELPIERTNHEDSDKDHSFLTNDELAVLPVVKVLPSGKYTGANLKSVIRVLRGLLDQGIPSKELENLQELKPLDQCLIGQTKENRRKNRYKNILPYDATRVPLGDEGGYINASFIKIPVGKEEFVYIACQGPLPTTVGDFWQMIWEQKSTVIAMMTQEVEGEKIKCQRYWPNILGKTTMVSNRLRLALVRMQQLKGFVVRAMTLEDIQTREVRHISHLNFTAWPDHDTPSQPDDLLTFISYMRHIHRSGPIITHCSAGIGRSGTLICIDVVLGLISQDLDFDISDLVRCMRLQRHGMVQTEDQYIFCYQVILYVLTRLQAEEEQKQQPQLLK
Quantity: IC50

Sure, the documented IC50 for "CC(C)(O)CCOc1ccc2cc(O)c(N3CC(=O)NS3(=O)=O)c(F)c2c1" is > 20 µM
